TARGET OR SYSTEM: hGAT2 (Homo sapiens)
Construct: expressed in transfected cells
Sequence (Q9NSD5 whole entry): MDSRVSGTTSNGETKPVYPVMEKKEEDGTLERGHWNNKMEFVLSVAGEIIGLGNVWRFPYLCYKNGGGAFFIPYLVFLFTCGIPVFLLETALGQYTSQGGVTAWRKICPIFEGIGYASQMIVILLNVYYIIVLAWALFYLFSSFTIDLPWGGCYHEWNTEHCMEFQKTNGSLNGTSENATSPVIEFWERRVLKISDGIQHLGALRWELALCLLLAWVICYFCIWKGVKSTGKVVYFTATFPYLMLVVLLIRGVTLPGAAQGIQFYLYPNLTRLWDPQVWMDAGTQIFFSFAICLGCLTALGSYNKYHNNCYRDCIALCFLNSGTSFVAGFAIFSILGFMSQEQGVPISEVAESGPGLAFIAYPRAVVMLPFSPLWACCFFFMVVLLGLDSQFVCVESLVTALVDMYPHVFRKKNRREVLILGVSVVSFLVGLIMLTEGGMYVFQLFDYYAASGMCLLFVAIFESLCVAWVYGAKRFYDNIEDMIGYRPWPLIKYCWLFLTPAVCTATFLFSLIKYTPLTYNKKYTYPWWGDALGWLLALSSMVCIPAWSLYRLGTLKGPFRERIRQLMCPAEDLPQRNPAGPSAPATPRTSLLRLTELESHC
ASSAY PROTOCOL: [3H]GABA uptake at hGAT2 stably expressed in CHO cells
Type: cell-based
TEST SETTINGS: read-out: IC50, low affinity component; biphasic fit, N=1; CHO
PROPERTY MEASURED: IC50
Could you kindly put the unit after your number?

What the record says about Cc1ccsc1C(=CCCN(C)[C@H]1CCCC[C@H]1C(=O)O)c1sccc1C [SBV2-114] : IC50 is 550 µM

* * *

PROPERTY MEASURED: pKi
Recall that pKi is obtained by taking minus log10 of the concentration measured in molar.

Simply: Cc1ccsc1C(=CCCN(C)[C@H]1CCCC[C@H]1C(=O)O)c1sccc1C [SBV2-114] , 5-HT2B (Homo sapiens, UniProt P41595), pKi = 6.38

* * *

TARGET OR SYSTEM: hBGT1 (Homo sapiens, UniProt P48065)
Construct: expressed in transfected cells; host or cells: tsA201 (transient)
Sequence (P48065 1-614): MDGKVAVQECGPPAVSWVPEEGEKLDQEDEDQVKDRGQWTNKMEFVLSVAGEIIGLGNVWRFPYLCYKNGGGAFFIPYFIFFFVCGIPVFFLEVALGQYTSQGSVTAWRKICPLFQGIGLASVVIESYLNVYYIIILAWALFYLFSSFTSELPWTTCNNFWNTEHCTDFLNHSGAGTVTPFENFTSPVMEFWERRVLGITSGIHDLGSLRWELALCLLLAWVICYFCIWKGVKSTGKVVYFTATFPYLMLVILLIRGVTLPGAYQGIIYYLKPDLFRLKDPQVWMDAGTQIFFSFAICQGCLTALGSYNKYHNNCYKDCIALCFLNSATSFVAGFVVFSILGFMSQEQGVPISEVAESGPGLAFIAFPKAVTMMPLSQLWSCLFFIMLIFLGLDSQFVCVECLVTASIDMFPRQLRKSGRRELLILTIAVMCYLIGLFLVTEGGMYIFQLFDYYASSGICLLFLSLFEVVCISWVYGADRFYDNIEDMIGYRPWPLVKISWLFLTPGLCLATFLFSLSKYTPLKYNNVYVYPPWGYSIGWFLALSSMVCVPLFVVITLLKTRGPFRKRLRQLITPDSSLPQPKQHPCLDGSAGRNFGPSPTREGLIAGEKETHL
ASSAY PROTOCOL: [3H]GABA uptake at hBGT1 transiently expressed in tsA201 cells
Type: cell-based
TEST SETTINGS: IC50, high affinity component (low IC50), biphasic fit; 30 nM [3H]GABA, 3 min; tsA201, 8 μg cDNA
PROPERTY MEASURED: IC50 (µM)
Could you give me the number in µM? Just the number is fine.

What the record says about Cc1ccsc1C(=CCCN(C)[C@@H]1CCCC[C@@H]1C(=O)O)c1sccc1C : IC50 is 4.7

What the record says about Cc1ccsc1C(=CCCN(C)[C@H]1CCCC[C@H]1C(=O)O)c1sccc1C : IC50 is 4.7

* * *

TARGET OR SYSTEM: hBGT1 (Homo sapiens, UniProt P48065)
Construct: expressed in transfected cells; host or cells: tsA201 (transient)
ASSAY PROTOCOL: [3H]GABA uptake at hBGT1 transiently expressed in tsA201 cells
Type: cell-based
TEST SETTINGS: read-out: IC50, low affinity component; 4 μg cDNA (n=2); biphasic fit
PROPERTY MEASURED: IC50 (µM)
Could you give me the number in µM? Just the number is fine.

What the record says about Cc1ccsc1C(=CCCN(C)[C@H]1CCCC[C@H]1C(=O)O)c1sccc1C [SBV2-114] : IC50 is 514

* * *

TARGET OR SYSTEM: hGAT2 (Homo sapiens)
Construct: expressed in transfected cells
ASSAY PROTOCOL: [3H]GABA uptake at hGAT2 stably expressed in CHO cells
Format: cell-based
TEST SETTINGS: biphasic fit, N=1; CHO; read-out: IC50, high affinity component
PROPERTY MEASURED: IC50 (µM)
Could you give me the number in µM? Just the number is fine.

What the record says about Cc1ccsc1C(=CCCN(C)[C@H]1CCCC[C@H]1C(=O)O)c1sccc1C [SBV2-114] : IC50 is 3.31

* * *

TARGET OR SYSTEM: hBGT1 (Homo sapiens, UniProt P48065)
Construct: expressed in transfected cells; host or cells: tsA201 (transient)
ASSAY PROTOCOL: [3H]GABA uptake at hBGT1 transiently expressed in tsA201 cells
Format: cell-based
TEST SETTINGS: read-out: IC50, low affinity component; 30 min pre-incubation with 25 μM BAPTA/AM
PROPERTY MEASURED: pIC50
Recall that pIC50 is obtained by taking minus log10 of the concentration measured in molar.

What the record says about Cc1ccsc1C(=CCCN(C)[C@H]1CCCC[C@H]1C(=O)O)c1sccc1C [SBV2-114] : pIC50 is 3.29

* * *

TARGET OR SYSTEM: hGAT1 (Homo sapiens)
Construct: expressed in transfected cells
ASSAY PROTOCOL: [3H]GABA uptake at hGAT1 stably expressed in CHO cells
Format: cell-based
TEST SETTINGS: monophasic fit, N=1; CHO
PROPERTY MEASURED: IC50 (µM)
Could you give me the number in µM? Just the number is fine.

What the record says about Cc1ccsc1C(=CCCN(C)[C@H]1CCCC[C@H]1C(=O)O)c1sccc1C : IC50 is 476

* * *

TARGET OR SYSTEM: hBGT1 (Homo sapiens)
Construct: expressed in transfected cells; host or cells: tsA201 (transient)
Sequence (P48065 1-614): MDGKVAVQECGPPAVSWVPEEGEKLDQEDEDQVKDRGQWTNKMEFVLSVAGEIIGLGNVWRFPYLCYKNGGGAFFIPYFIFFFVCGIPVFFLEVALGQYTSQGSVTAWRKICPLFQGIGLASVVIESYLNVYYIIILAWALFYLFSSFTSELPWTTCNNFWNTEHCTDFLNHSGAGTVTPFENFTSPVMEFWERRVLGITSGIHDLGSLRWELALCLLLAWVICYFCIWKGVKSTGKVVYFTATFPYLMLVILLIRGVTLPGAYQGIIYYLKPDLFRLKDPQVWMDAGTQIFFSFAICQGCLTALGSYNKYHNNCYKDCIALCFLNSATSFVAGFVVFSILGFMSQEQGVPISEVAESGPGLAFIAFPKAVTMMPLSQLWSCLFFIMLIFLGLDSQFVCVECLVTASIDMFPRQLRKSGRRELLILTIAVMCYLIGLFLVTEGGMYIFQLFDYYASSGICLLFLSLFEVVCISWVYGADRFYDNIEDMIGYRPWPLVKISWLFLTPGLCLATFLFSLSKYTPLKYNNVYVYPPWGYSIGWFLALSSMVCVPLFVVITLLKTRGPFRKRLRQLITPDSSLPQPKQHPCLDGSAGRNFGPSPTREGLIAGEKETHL
ASSAY PROTOCOL: [3H]GABA uptake at hBGT1 transiently expressed in tsA201 cells
Assay type: cell-based
TEST SETTINGS: read-out: IC50, low affinity component (high IC50); biphasic fit; 30 nM [3H]GABA, 3 min; tsA201, 8 μg cDNA
PROPERTY MEASURED: IC50
Could you kindly put the unit after your number?

Simply: Cc1ccsc1C(=CCCN(C)[C@H]1CCCC[C@H]1C(=O)O)c1sccc1C [SBV2-114] , hBGT1 (Homo sapiens), IC50 = 556 µM

Simply: Cc1ccsc1C(=CCCN(C)[C@@H]1CCCC[C@H]1C(=O)O)c1sccc1C [(1R,2R)-4a] , hBGT1 (Homo sapiens), IC50 = 566 µM

Simply: Cc1ccsc1C(=CCCN(C)[C@@H]1CCCC[C@@H]1C(=O)O)c1sccc1C [(1S,2R)-5a] , hBGT1 (Homo sapiens), IC50 = 370 µM

* * *

TARGET OR SYSTEM: hGAT1 (Homo sapiens, UniProt P30531)
Construct: expressed in transfected cells
Sequence (P30531 whole entry): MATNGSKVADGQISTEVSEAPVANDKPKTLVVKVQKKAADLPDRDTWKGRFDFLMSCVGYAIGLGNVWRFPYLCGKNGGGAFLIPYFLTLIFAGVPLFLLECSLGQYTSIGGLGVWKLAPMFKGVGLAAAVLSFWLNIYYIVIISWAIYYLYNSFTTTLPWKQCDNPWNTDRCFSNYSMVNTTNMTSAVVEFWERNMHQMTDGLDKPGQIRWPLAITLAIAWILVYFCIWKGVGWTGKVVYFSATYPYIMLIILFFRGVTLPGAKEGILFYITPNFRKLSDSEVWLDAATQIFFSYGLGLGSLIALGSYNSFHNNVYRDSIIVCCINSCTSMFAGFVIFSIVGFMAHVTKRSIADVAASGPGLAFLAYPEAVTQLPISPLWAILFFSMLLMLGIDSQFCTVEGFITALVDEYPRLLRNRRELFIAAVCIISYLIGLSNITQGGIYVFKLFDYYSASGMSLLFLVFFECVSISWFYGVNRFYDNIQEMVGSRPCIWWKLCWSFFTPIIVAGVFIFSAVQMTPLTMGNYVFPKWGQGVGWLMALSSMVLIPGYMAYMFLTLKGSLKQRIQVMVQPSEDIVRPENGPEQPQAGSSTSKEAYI
ASSAY PROTOCOL: [3H]GABA uptake at hGAT1 stably expressed in CHO cells
Assay type: cell-based
TEST SETTINGS: ambiguous fit, N=2; CHO
PROPERTY MEASURED: pIC50
Recall that pIC50 is obtained by taking minus log10 of the concentration measured in molar.

What the record says about Cc1ccsc1C(=CCCN(C)[C@H]1CCCC[C@H]1C(=O)O)c1sccc1C : pIC50 is 3.25

* * *

TARGET OR SYSTEM: hBGT1 (Homo sapiens, UniProt P48065)
Construct: expressed in transfected cells; host or cells: tsA201 (transient)
ASSAY PROTOCOL: [3H]GABA uptake at hBGT1 transiently expressed in tsA201 cells
Format: cell-based
TEST SETTINGS: biphasic fit; 30 nM [3H]GABA, 3 min; tsA201, 8 μg cDNA; read-out: IC50, high affinity component (low IC50)
PROPERTY MEASURED: IC50 (µM)
Could you give me the number in µM? Just the number is fine.

What the record says about CN(CCC=C1c2ccccc2CCc2ccccc21)[C@@H]1CCCC[C@@H]1C(=O)O : IC50 is 11.2
